From: PubChem BioAssay

system: Torsin-1A-interacting protein 1 (Homo sapiens) (UniProt Q5JTV8)
Sequence (Q5JTV8 whole entry, looked up): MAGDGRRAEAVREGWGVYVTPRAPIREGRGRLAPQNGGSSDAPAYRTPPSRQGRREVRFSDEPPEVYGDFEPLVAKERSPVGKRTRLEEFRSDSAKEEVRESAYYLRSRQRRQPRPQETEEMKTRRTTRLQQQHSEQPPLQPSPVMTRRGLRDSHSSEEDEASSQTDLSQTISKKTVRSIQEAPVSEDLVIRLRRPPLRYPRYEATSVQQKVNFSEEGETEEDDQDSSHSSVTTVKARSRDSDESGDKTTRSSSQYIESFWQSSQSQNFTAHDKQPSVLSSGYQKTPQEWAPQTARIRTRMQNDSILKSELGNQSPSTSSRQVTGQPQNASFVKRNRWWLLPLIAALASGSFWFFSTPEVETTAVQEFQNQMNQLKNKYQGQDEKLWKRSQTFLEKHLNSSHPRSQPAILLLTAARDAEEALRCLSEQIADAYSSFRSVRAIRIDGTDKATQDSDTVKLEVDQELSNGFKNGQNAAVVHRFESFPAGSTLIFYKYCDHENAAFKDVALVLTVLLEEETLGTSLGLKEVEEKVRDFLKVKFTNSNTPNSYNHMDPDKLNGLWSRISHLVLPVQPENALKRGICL
experimental_details: compound microarray binding of lysate hLAP1 – cell lysate, small-molecule microarray, COS7 lysate, 635/667 nm fluorescence, primary screen (AID 1116)
condition_description: 635 nm fluorescence, higher = more signal
Cut-off 1 on composite z-score, inclusive. At or above means Condition met; below means Condition not met.

stdin: Hello, I need to know if COCCCNC(=O)[C@@]1(CCS(=O)(=O)c2ccccc2)COC(c2ccc(OCCCO)cc2)=N1 has measured composite z-score not below 1. Thanks!
stdout: Condition met

stdin: Kindly determine if composite z-score recorded for COc1cc(C(O)C2C=CC3C(=O)N(c4ccccc4)C(=O)C3N2Nc2ccccc2F)cc(OC)c1OC (centres undefined) is above or exactly 1.
stdout: Condition not met

stdin: Check the entry O=C(NCc1ccccc1)[C@@H]1c2ccccc2C(=O)N(Cc2ccc(OC(F)(F)F)cc2)[C@H]1c1ccc(CO)cc1 : does composite z-score equal or exceed 1?
stdout: Condition met

stdin: API: above_or_equal(metric=composite z-score, cutoff=1) for item COCCOC(=O)N1C(=O)[C@@]2(c3ccccc31)[C@H](c1ccc(O)cc1)N1[C@H](c3ccccc3)[C@H](c3ccccc3)OC(=O)[C@H]1[C@@H]2C(=O)N1CCCCCCC1
stdout: Condition met

stdin: Entry C=C(CCCC)C(=O)CC[C@@H](OC(=O)c1ccccc1-c1ccccc1C(=O)O)c1ccccc1OCCO : is its composite z-score no less than 1?
stdout: Condition met

stdin: Has COCC(=C=CC[C@H](O)c1ccccc1OCCO)C[C@H](O)COCc1ccccc1 a recorded composite z-score greater than or equal to 1?
stdout: Condition met

stdin: Does composite z-score meet or surpass 1 for CC1CC/C=C\[C@H]2OC34C=CCN(c5ccc(Cl)cc5)C(=O)[C@H]3N(CCCCCCO)C(=O)[C@]4(C)C2C(=O)O1 (some centres undefined) ?
stdout: Condition not met

stdin: Tell me whether composite z-score is at least 1 here: COC(=O)[C@@]1(Cc2ccc(F)cc2)[C@H]2c3cc(C(=O)N4CCCC4)n(CCc4ccccn4)c3C[C@H]2CN1C(=O)c1ccccc1
stdout: Condition not met

stdin: // inclusive: composite z-score at least 1? input: COc1ccc([Si](C)(C)[C@@H]2[C@@H](CC(=O)N(CCO)Cc3ccccc3)O[C@]3(C(=O)N(Cc4ccc(N5C(=O)c6cccc7cccc5c67)cc4)c4ccccc43)[C@H]2C)cc1
stdout: Condition not met

stdin: Does the compound C[C@@H]1ON(c2ccccc2)[C@H](c2ccccc2)[C@H]1C(=O)O have recorded composite z-score that is 1 or more?
stdout: Condition not met

stdin: // inclusive: composite z-score at least 1? input: COCCOC(=O)N1C(=O)[C@@]2(c3cc(C#CC4(O)CCCCCC4)ccc31)[C@H](c1ccc(O)cc1)N1[C@H](c3ccccc3)[C@H](c3ccccc3)OC(=O)[C@H]1[C@@H]2C(=O)N1CCCCCCC1
stdout: Condition met

stdin: Hi, just wondering whether NC(=O)N1C(=O)C2C(C1=O)C1C=C(CCCO)C2C(c2ccc(CN3CCCC3)cc2)N1Cc1cc2c(cc1Br)OCO2 (centres undefined) shows composite z-score of 1 or higher.
stdout: Condition not met

stdin: I'd appreciate it if you could say whether CN(C)CCCC[C@@H]1NC(=O)[C@@H]2C[C@H](C(=O)NCCCCCN)[C@H](c3cccc(OCCO)c3)N2C1=O has composite z-score at least equal to 1.
stdout: Condition met

stdin: Decide: is the reported value of composite z-score for O=C1O[C@@H](c2ccccc2)[C@@H](c2ccccc2)N2[C@@H](c3ccc(OCCO)cc3)[C@]3(C(=O)Nc4ccc(C#CC5(O)CCCCCC5)cc43)[C@@H](C(=O)O)[C@H]12 equal to or greater than 1?
stdout: Condition not met
